Source: ChEMBL document CHEMBL3286172

EC50 listing for selected compounds.
test system: Human immunodeficiency virus 1; assay: Antiviral activity against HIV-1 harboring NNTRI-resistant reverse transcriptase Y181C mutant infected in human MT4 cells assessed as inhibition of virus-induced cytopathic effect by MTT method; assay type: functional, organism-based; settings: Human immunodeficiency virus 1, MT4

compound | experimental system | quantity kind | result
CCc1c(C(C)c2c(F)cccc2F)nc(SC2CCCC2)[nH]c1=O (racemic) | Human immunodeficiency virus 1 | EC50 | > 3000 nM
CCc1c(C(C)c2c(F)cccc2F)nc(SC(C)C)[nH]c1=O (racemic) | Human immunodeficiency virus 1 | EC50 | > 3000 nM
CCc1c(C(C)c2c(F)cccc2Cl)nc(SC(C)C)[nH]c1=O (racemic) | Human immunodeficiency virus 1 | EC50 | > 3000 nM
Cc1c(Cc2c(F)cccc2Cl)nc(SC(C)C)[nH]c1=O | Human immunodeficiency virus 1 | EC50 | 8400 nM

Moving on to the next compound.
**Q:** Looking for the measured EC50 of CCCSc1nc(C(C)c2c(F)cccc2Cl)c(CC)c(=O)[nH]1 (racemic) , can you help?
**A:** > 3000 nM

* * *

test system: Human immunodeficiency virus 1; test: Fold resistance, ratio of EC50 for HIV-1 harboring NNTRI-resistant reverse transcriptase Y181C mutant infected in human MT4 cells to EC50 for wild type HIV-1 NL4-3 infected in human MT4 cells; assay type: functional
quantity kind: Ratio EC50

compound | Ratio EC50
CCCCSc1nc(Cc2c(F)cccc2Cl)c(C)c(=O)[nH]1 | 21
CCC(c1nc(SC2CCCC2)[nH]c(=O)c1C)c1c(F)cccc1F (racemic) | 100
CC(C)Sc1nc(Cc2c(F)cccc2Cl)cc(=O)[nH]1 | 47

**Q:** Looking for the measured Ratio EC50 of Cc1c(O)nc(SC(C)C)nc1C(C)c1c(F)cccc1F (racemic) , can you help?
**A:** 120

**Q:** Next record, please: CC[C@H](C)Sc1nc([C@H](C)c2c(F)cccc2Cl)cc(=O)[nH]1 (racemic)
**A:** 113

**Q:** Next record, please: "CCCSc1nc(Cc2c(F)cccc2Cl)c(C)c(=O)[nH]1"
**A:** 27

* * *

system: Human immunodeficiency virus 1; assay: Antiviral activity against HIV-1 harboring NNTRI-resistant reverse transcriptase K103N mutant infected in human MT4 cells assessed as inhibition of virus-induced cytopathic effect by MTT method; assay type: functional, organism-based; settings: Human immunodeficiency virus 1, MT4
pEC50: −log10 of the molar value.
pEC50 listing for selected compounds.

Answered cases to consult:
compound | pEC50
CCCCSc1nc(C(C)c2c(F)cccc2Cl)c(CC)c(=O)[nH]1 (racemic) | < 5.52
CCC(C)Sc1nc(C(CC)c2c(F)cccc2Cl)c(C)c(=O)[nH]1 (racemic) | < 5.52
CCCSc1nc(C(C)c2c(F)cccc2F)c(CC)c(=O)[nH]1 (racemic) | < 5.52
CCc1c(C(C)c2c(F)cccc2F)nc(SC(C)C)[nH]c1=O (racemic) | < 5.52

Moving on to the next compound.
**Q:** What value of pEC50 on Human immunodeficiency virus 1 does CCCCSc1nc(C(CC)c2c(F)cccc2F)c(C)c(=O)[nH]1 (racemic) have?
**A:** < 5.52

* * *

system: Human immunodeficiency virus type 1 reverse transcriptase (Human immunodeficiency virus 1), Q72547 [L100I]
# class 1 = ID50 below 300 nM (exclusive); class 0 = ID50 at/above 300 nM

Known results for compounds:
compound | answer label
CC(c1cc(=O)[nH]c(SC2CCCC2)n1)c1c(F)cccc1Cl (racemic) | class 0
CCC(c1nc(SC2CCCC2)[nH]c(=O)c1C)c1c(F)cccc1Cl (racemic) | class 1
CCCCSc1nc(C(CC)c2c(F)cccc2F)c(C)c(=O)[nH]1 (racemic) | class 1
CCC(c1nc(SC2CCCC2)[nH]c(=O)c1C)c1c(F)cccc1F (racemic) | class 1
CCc1c(C(C)c2c(F)cccc2F)nc(SC(C)C)[nH]c1=O (racemic) | class 0

**Q:** Please state whether ID50 is below 300 nM for CCc1c(C(C)c2c(F)cccc2F)nc(SC(C)CC)[nH]c1=O (racemic)
**A:** class 1

**Q:** Next record, please: CCCSc1nc(C(C)c2c(F)cccc2Cl)c(C)c(=O)[nH]1 (racemic)
**A:** class 1

**Q:** Next record, please: CCC(c1nc(SC(C)C)[nH]c(=O)c1C)c1c(F)cccc1F (racemic)
**A:** class 1

**Q:** Next record, please: CCCCSc1nc(C(C)c2c(F)cccc2F)c(CC)c(=O)[nH]1 (racemic)
**A:** class 1

* * *

test system: Human immunodeficiency virus 1; assay: Antiviral activity against HIV-1 harboring NNTRI-resistant reverse transcriptase K103N mutant infected in human MT4 cells assessed as inhibition of virus-induced cytopathic effect by MTT method; assay type: functional, organism-based; conditions: Human immunodeficiency virus 1, MT4
# yes = EC50 below 8000 nM (exclusive); no = EC50 at/above 8000 nM

compound | answer label
Cc1c(Cc2c(F)cccc2Cl)nc(SC2CCCC2)[nH]c1=O | no
CC[C@H](C)Sc1nc([C@@H](C)c2c(F)cccc2Cl)cc(=O)[nH]1 | yes
CCC(C)Sc1nc(Cc2c(F)cccc2Cl)c(C)c(=O)[nH]1 (centres undefined) | yes
CCC(c1nc(SC(C)C)[nH]c(=O)c1C)c1c(F)cccc1F (racemic) | yes
Cc1c([C@@H](C)c2c(F)cccc2Cl)nc(SC(C)C)[nH]c1=O | no
CC[C@@H](C)Sc1nc([C@H](C)c2c(F)cccc2Cl)cc(=O)[nH]1 | yes
CCC(C)Sc1nc(Cc2c(F)cccc2Cl)cc(=O)[nH]1 (centres undefined) | no
O=c1cc(Cc2c(F)cccc2Cl)nc(SC2CCCC2)[nH]1 | no

**Q:** Please state whether EC50 is below 8000 nM for "CC[C@H](C)Sc1nc([C@@H](C)c2c(F)cccc2Cl)c(C)c(=O)[nH]1"
**A:** no

**Q:** Next record, please: "CC[C@@H](C)Sc1nc([C@H](C)c2c(F)cccc2Cl)c(C)c(=O)[nH]1"
**A:** yes

**Q:** Next record, please: "CC(C)Sc1nc(Cc2c(F)cccc2Cl)cc(=O)[nH]1"
**A:** no

**Q:** Next record, please: Cc1c(C(C)c2c(F)cccc2Cl)nc(SC(C)C)[nH]c1=O (racemic)
**A:** yes

**Q:** Next record, please: "CC[C@@H](C)Sc1nc([C@@H](C)c2c(F)cccc2Cl)c(C)c(=O)[nH]1"
**A:** yes

* * *

tested on: Human immunodeficiency virus 1; test: Fold resistance, ratio of ID50 for HIV-1 recombinant NNTRI-resistant reverse transcriptase L100I mutant to ID50 for wild type HIV-1 recombinant reverse transcriptase
# 1.0 = Ratio below 50 (exclusive); 0.0 = Ratio at/above 50

Known results for compounds:
compound | answer label
CC[C@@H](C)Sc1nc([C@@H](C)c2c(F)cccc2Cl)c(C)c(=O)[nH]1 | 1.0
Cc1c(C(C)c2c(F)cccc2F)nc(SC2CCCC2)[nH]c1=O (racemic) | 0.0
CC[C@@H](C)Sc1nc([C@H](C)c2c(F)cccc2Cl)c(C)c(=O)[nH]1 | 1.0

**Q:** Please state whether Ratio is below 50 for CCc1c(C(C)c2c(F)cccc2F)nc(SC2CCCC2)[nH]c1=O (racemic)
**A:** 0.0

**Q:** Next record, please: "CC[C@H](C)Sc1nc([C@@H](C)c2c(F)cccc2Cl)cc(=O)[nH]1"
**A:** 1.0

**Q:** Next record, please: "CC[C@@H](C)Sc1nc([C@@H](C)c2c(F)cccc2Cl)cc(=O)[nH]1"
**A:** 1.0

**Q:** Next record, please: CCCCSc1nc(C(C)c2c(F)cccc2F)c(CC)c(=O)[nH]1 (racemic)
**A:** 0.0

**Q:** Next record, please: CCCSc1nc(C(CC)c2c(F)cccc2Cl)c(C)c(=O)[nH]1 (racemic)
**A:** 1.0

* * *

tested on: Human immunodeficiency virus 1; experiment: Antiviral activity against HIV-1 harboring NNTRI-resistant reverse transcriptase Y181C mutant infected in human MT4 cells assessed as inhibition of virus-induced cytopathic effect by MTT method; assay type: functional, organism-based; details: Human immunodeficiency virus 1, MT4
quantity kind: EC50 (nM)
Enter your answer as a number in nM; do not include the unit.

compound | experimental system | EC50, nM
CC[C@@H](C)Sc1nc([C@@H](C)c2c(F)cccc2Cl)c(C)c(=O)[nH]1 | Human immunodeficiency virus 1 | 890
CCC(c1nc(SC2CCCC2)[nH]c(=O)c1C)c1c(F)cccc1F (racemic) | Human immunodeficiency virus 1 | 1100
CC[C@H](C)Sc1nc([C@H](C)c2c(F)cccc2Cl)cc(=O)[nH]1 (racemic) | Human immunodeficiency virus 1 | 1240
CC[C@@H](C)Sc1nc([C@@H](C)c2c(F)cccc2Cl)cc(=O)[nH]1 | Human immunodeficiency virus 1 | 13200
Cc1c([C@H](C)c2c(F)cccc2Cl)nc(SC(C)C)[nH]c1=O | Human immunodeficiency virus 1 | 150

**Q:** What value of EC50 on Human immunodeficiency virus 1 does CCC(C)Sc1nc(C(C)c2c(F)cccc2Cl)c(C)c(=O)[nH]1 (racemic) have?
**A:** 390

**Q:** Next record, please: CCCSc1nc(C(C)c2c(F)cccc2Cl)cc(=O)[nH]1 (racemic)
**A:** 2300

**Q:** Next record, please: CCC(C)Sc1nc(C(CC)c2c(F)cccc2F)c(C)c(=O)[nH]1 (racemic)
**A:** 300

**Q:** Next record, please: CCC(C)Sc1nc(Cc2c(F)cccc2Cl)cc(=O)[nH]1 (stereo not given)
**A:** 8300

**Q:** Next record, please: Cc1c(C(C)c2c(F)cccc2Cl)nc(SC(C)C)[nH]c1=O (racemic)
**A:** 250

**Q:** Next record, please: CCCSc1nc(C(CC)c2c(F)cccc2Cl)c(C)c(=O)[nH]1 (racemic)
**A:** 2800

**Q:** Next record, please: "CCCSc1nc(Cc2c(F)cccc2Cl)cc(=O)[nH]1"
**A:** 8200

**Q:** Next record, please: CCC(C)Sc1nc(O)c(C)c(C(C)c2c(F)cccc2F)n1 (racemic)
**A:** 71

**Q:** Next record, please: CC(C)Sc1nc(C(C)c2c(F)cccc2Cl)cc(=O)[nH]1 (racemic)
**A:** 7500

**Q:** Next record, please: Cc1c(C(C)c2c(F)cccc2Cl)nc(SC2CCCC2)[nH]c1=O (racemic)
**A:** 230
